- System: Rattus norvegicus
- Method Description: Anti-platelet activity against ADP-induced platelet aggregation in rat assessed as inhibition of platelet aggregation at 2 mg/kg relative to control
- Format: functional
Reported Endpoint: inhibition in vivo at 2 mg/kg (%)
Output spec: scalar in %, unitless text.

Worked cases, answers included:
{"Smiles Data": "C=C/C=C/C(=O)Oc1cc2c(s1)CCN([C@H](C(=O)OC)c1ccccc1Cl)C2", "inhibition in vivo at 2 mg/kg [%]": 97.6}
{"Smiles Data": "CCC/C=C/C(=O)Oc1cc2c(s1)CCN([C@H](C(=O)OC)c1ccccc1Cl)C2", "inhibition in vivo at 2 mg/kg [%]": 74.3}
{"Smiles Data": "CC/C=C/C(=O)Oc1cc2c(s1)CCN([C@H](C(=O)OC)c1ccccc1Cl)C2", "inhibition in vivo at 2 mg/kg [%]": 62.9}

// next entry
stdin: Please give the measured inhibition in vivo at 2 mg/kg for this compound: C/C=C/C(=O)Oc1cc2c(s1)CCN([C@H](C(=O)OC)c1ccccc1Cl)C2
stdout: 77

---

- Method Description: Stability in human plasma assessed as compound remaining measured at 45 mins relative to control
- Format: ADME, cell-free
- Conditions: read-out: Stability
Property: remaining at 0.75 h; scope: individual molecules
Answer format: value, then unit.

Worked cases, answers included:
{"Smiles Data": "C/C=C/C(=O)Oc1cc2c(s1)CCN([C@H](C(=O)OC)c1ccccc1Cl)C2", "remaining at 0.75 h": "28%"}
{"Smiles Data": "C/C=C/C=C/C(=O)Oc1cc2c(s1)CCN([C@H](C(=O)OC)c1ccccc1Cl)C2", "remaining at 0.75 h": "83.9%"}

stdin: Please give the measured remaining at 0.75 h for this molecule: COC(=O)[C@H](c1ccccc1Cl)N1CCc2sccc2C1
stdout: 101%

---

- Method Description: Stability in human plasma assessed as compound remaining measured at 10 mins relative to control
- Assay type: ADME, cell-free
- Conditions: read-out: Stability
Reported Endpoint: remaining at 10 min (%)
Output spec: scalar in %, unitless text.

{"Smiles Data": "C/C=C/C=C/C(=O)Oc1cc2c(s1)CCN([C@H](C(=O)OC)c1ccccc1Cl)C2", "Reported Measurement": 92.8}
{"Smiles Data": "C/C=C/C(=O)Oc1cc2c(s1)CCN([C@H](C(=O)OC)c1ccccc1Cl)C2", "Reported Measurement": 82.3}

// next entry
stdin: Please give the measured remaining at 10 min for this molecule: COC(=O)[C@H](c1ccccc1Cl)N1CCc2sccc2C1
stdout: 102

---

- Method Description: Stability in human plasma assessed as compound remaining measured at 360 mins relative to control
- Type: ADME, cell-free
- Conditions: read-out: Stability
Reported Endpoint: remaining at 6 h (%)
Output spec: scalar in %, unitless text.

{"Smiles Data": "C/C=C/C(=O)Oc1cc2c(s1)CCN([C@H](C(=O)OC)c1ccccc1Cl)C2", "Unit Spec": "%", "remaining at 6 h": 0}

// next entry
stdin: Please give the measured remaining at 6 h for this compound: C/C=C/C=C/C(=O)Oc1cc2c(s1)CCN([C@H](C(=O)OC)c1ccccc1Cl)C2
stdout: 14.8

---

- Method Description: Stability in human plasma assessed as compound remaining measured at 90 mins relative to control
- Assay type: ADME, cell-free
- Conditions: read-out: Stability
Property: remaining at 1.5 h; scope: individual compounds
Output spec: scalar in %, unitless text.

Worked cases, answers included:
{"Smiles Data": "COC(=O)[C@H](c1ccccc1Cl)N1CCc2sccc2C1", "remaining at 1.5 h / %": 94}
{"Smiles Data": "C/C=C/C=C/C(=O)Oc1cc2c(s1)CCN([C@H](C(=O)OC)c1ccccc1Cl)C2", "remaining at 1.5 h / %": 63.8}

stdin: Please give the measured remaining at 1.5 h for this compound: C/C=C/C(=O)Oc1cc2c(s1)CCN([C@H](C(=O)OC)c1ccccc1Cl)C2
stdout: 5.49

---

- Method Description: Toxicity in rat assessed as bleeding time by measuring ratio of ED200 to ED50 ratio by tail cutting assay
- Conditions: in vivo
Property: selectivity ratio; scope: individual compounds

Worked cases, answers included:
{"Compound": "C/C=C/C=C/C(=O)Oc1cc2c(s1)CCN([C@H](C(=O)OC)c1ccccc1Cl)C2", "selectivity ratio": 0.52}
{"Compound": "CC(=O)Oc1cc2c(s1)CCN(C(C(=O)C1CC1)c1ccccc1F)C2 (stereo not drawn) [PRASUGREL]", "selectivity ratio": 0.838}

// next entry
stdin: Please give the measured selectivity ratio for this compound: C/C=C/C(=O)Oc1cc2c(s1)CCN([C@H](C(=O)OC)c1ccccc1Cl)C2
stdout: 1.97
